Parameter: Melanin Synthesis Inhibition (% inhibition vs. untreated). Scope: all listed entries.
Test system: melanocytes
protocolSummary: Melanin synthesis inhibition, separate assay, Table 2a
Assay type: cell-based, human
conditions: sample concentrations per Table 2b
measuredEndpoint: Melanin Synthesis Inhibition (% inhibition vs. untreated) (%)

- compound: "CCCCCCc1ccc(O)cc1O [HR 1, hexylresorcinol]"
  testedSystem: "melanocytes"
  measured: 10.4
- compound: "Oc1ccc(O)cc1 [Control, hydroquinone, reference compound]"
  testedSystem: "melanocytes"
  measured: 20.6
- compound: "CCCCCCc1ccc(O)cc1O [HR 3, hexylresorcinol]"
  testedSystem: "melanocytes"
  measured: 9.3
- compound: "CCCCCCc1ccc(O)cc1O [HR 2, hexylresorcinol]"
  testedSystem: "melanocytes"
  measured: 10.2
- compound: "CCCCCCc1ccc(O)cc1O [HR 4, hexylresorcinol]"
  testedSystem: "melanocytes"
  measured: 8.8
